Cited source for all entries: patent US20220041606A1

# Tgt: human mAChR M1 (Homo sapiens)
# Construct: host or cells: CHO-K1 cells (ATCC), stably transfected using Lipofectamine2000
# Sequence (P11229 whole entry): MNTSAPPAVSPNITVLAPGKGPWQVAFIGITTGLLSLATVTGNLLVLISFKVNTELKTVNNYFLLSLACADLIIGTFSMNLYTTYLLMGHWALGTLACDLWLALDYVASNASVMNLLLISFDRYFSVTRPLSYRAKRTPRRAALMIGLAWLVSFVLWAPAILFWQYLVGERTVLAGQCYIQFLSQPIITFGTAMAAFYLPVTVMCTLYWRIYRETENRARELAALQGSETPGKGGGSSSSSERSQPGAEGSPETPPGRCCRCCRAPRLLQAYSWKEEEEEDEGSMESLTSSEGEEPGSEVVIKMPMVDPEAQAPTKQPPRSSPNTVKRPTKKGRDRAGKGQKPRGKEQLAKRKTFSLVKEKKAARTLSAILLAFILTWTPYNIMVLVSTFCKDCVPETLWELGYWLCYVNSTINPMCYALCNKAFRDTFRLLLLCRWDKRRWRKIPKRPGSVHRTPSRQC
# Assay comment: mAChR M1 cell-based functional assay (calcium mobilization), PAM activity: increase in the EC20 acetylcholine response
# Conditions used: CHO-K1 cells expressing hM1; potentiation of EC20 acetylcholine response
pEC50: −log10 of the molar value.
Measured property: pEC50

Below, 4 compounds whose answers are already recorded.
>  <Compound>
Cn1cc(-c2ccc(Cn3cc(C(=O)N[C@H]4CCCC[C@@H]4O)c4occc4c3=O)c(F)c2)cn1

>  <Tgt>
human mAChR M1 (Homo sapiens)

>  <pEC50>
5.67

$$$$
>  <Compound>
Cc1nc(-c2ccc(Cn3cc(C(=O)N[C@H]4CCCC[C@@H]4O)c4ncccc4c3=O)cc2)co1

>  <Tgt>
human mAChR M1 (Homo sapiens)

>  <pEC50>
6.11

$$$$
>  <Compound>
Cn1cc(-c2ccc(Cn3cc(C(=O)N[C@H]4CCCCC[C@@H]4O)c4nccnc4c3=O)c(F)c2)cn1

>  <Tgt>
human mAChR M1 (Homo sapiens)

>  <pEC50>
5.53

$$$$
>  <Compound>
Cn1cc2c(-c3cc(F)c(Cn4cc(C(=O)N[C@H]5CCOC[C@@H]5O)c5ncccc5c4=O)c(F)c3)cccc2n1

>  <Tgt>
human mAChR M1 (Homo sapiens)

>  <pEC50>
7.72

$$$$

[I] Cn1cc2c(-c3cc(F)c(Cn4cc(C(=O)N[C@H]5CCOC[C@@H]5O)c5sccc5c4=O)c(F)c3)cccc2n1
[II] Cn1cc(-c2ccc(Cn3cc(C(=O)N[C@@H]4CC[C@H]4O)c4nccn4c3=O)c(F)c2)cn1
*Q* Please indicate which entry, I or II , has the lower recorded pEC50 value. Bench note: the answer is the label of the chosen record.
*A* I
(I: 5.34, II: 5.70)

[I] Cc1cn2c(=O)n(Cc3c(F)cc(-c4cccc5nn(C)cc45)cc3F)cc(C(=O)N[C@H]3CCCC[C@@H]3O)c2n1
[II] Cn1cc2c(-c3cc(F)c(Cn4cc(C(=O)N[C@H]5CCC[C@@H]5O)c5occc5c4=O)c(F)c3)cccc2n1
*Q* Of the two listed items, I and II , which carries the larger pEC50 figure? Give the chosen item's label as your response.
*A* II
(II: 6.09, I: 5.23)
